Reference source for all entries: paper PMC11784839

studyTarget: tau (Homo sapiens, UniProt P10636)
Sequence (P10636 623-695 limits assumed): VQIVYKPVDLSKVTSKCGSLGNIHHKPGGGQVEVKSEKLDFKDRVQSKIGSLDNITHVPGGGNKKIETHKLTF
procedureText: MCE Phenols Library screening, tau biosensor cell seeding assay (AvZ)
Assay type: cell-based
runConditions: average Z score of two replicates, Phenols Library screen
readoutLabel: av Z
Reply: number alone, nothing else.

Recorded results for 4 compounds are shown here.
>  <compound>
CC(C(=O)c1ccc(O)cc1O)c1ccc(O)cc1 (stereo not drawn) [O-Desmethylangolensin]

>  <av Z>
-0.043

$$$$
>  <compound>
O=c1ccc2cc(O)ccc2o1 [6-Hydroxycoumarin]

>  <av Z>
0.006

$$$$
>  <compound>
O=c1c(O[C@@H]2O[C@H](CO[C@@H]3O[C@H](CO)[C@@H](O)[C@H](O)[C@H]3O)[C@@H](O)[C@H](O)[C@H]2O)c(-c2ccc(O)cc2)oc2cc(O)cc(O)c12 [Kaempferol 3-O-gentiobioside]

>  <av Z>
0.032

$$$$
>  <compound>
CC(C)=CCc1c2ccoc2c(O)c2oc(=O)ccc12 [Alloimperatorin]

>  <av Z>
0.035

$$$$

Incoming: If you can, please state the reported av Z value of COc1ccc(-c2cc(=O)c3c(O)cc(O)cc3o2)cc1 [Acacetin] .
Outgoing: -0.124

Incoming: If you can, please state the reported av Z value of COc1c(O)cc2c(c1O)[C@@H]1O[C@H](CO)[C@@H](O)[C@H](O)[C@H]1OC2=O [Bergenin] .
Outgoing: -0.131

Incoming: If you can, please state the reported av Z value of COc1c(O)cc2occ(-c3ccc(O)cc3)c(=O)c2c1O [Tectorigenin] .
Outgoing: -0.063

Incoming: If you can, please state the reported av Z value of COc1c(O)c(C)cc2c1C(=O)c1c(O)cccc1C2=O [Obtusifolin] .
Outgoing: -0.081

Incoming: If you can, please state the reported av Z value of O=C(/C=C/c1ccc(O)c(O)c1)O[C@@H]1C[C@](O)(C(=O)O)C[C@@H](O)[C@H]1O [Chlorogenic acid] .
Outgoing: -0.007

Incoming: If you can, please state the reported av Z value of COc1ccc(CC(=O)c2ccc(O)cc2O)cc1 [Ononetin] .
Outgoing: 0.095

Incoming: If you can, please state the reported av Z value of O=C1O[C@@H]2[C@@H](O)[C@H](O)[C@@H](CO)O[C@H]2c2c1cc(O)c(O)c2O [Norbergenin] .
Outgoing: -0.043
